- test.target: c-Kit (Homo sapiens, UniProt P10721)
- Sequence (P10721 26-976): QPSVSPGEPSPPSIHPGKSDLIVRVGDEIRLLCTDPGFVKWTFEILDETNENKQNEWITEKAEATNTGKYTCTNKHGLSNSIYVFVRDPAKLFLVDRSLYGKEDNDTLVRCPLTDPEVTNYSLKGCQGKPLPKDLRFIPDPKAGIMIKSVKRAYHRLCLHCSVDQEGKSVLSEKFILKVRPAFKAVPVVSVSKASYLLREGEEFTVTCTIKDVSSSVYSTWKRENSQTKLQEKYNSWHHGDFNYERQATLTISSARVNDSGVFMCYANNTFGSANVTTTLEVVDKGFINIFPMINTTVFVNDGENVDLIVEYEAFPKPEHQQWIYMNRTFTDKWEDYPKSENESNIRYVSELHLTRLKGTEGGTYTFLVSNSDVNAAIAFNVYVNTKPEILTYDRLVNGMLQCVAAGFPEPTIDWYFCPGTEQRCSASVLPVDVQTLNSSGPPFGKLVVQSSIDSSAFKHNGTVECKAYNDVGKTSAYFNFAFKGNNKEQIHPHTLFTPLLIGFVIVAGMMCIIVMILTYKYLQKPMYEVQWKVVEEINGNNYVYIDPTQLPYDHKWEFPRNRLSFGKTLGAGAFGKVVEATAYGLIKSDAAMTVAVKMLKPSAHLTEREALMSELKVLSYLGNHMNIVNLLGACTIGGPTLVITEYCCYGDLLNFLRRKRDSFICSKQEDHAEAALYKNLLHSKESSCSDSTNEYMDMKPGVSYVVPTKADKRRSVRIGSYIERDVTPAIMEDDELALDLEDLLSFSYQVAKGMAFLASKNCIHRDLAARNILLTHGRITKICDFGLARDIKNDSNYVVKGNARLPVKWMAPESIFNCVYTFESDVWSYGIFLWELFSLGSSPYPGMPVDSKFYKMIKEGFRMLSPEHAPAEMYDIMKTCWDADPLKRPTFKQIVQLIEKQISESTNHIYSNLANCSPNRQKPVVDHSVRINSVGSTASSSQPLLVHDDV
- assay.remarks: c-Kit tyrosine kinase inhibition, Caliper screening (fluorescent substrate phosphorylation, electrophoretic separation)
- Format: biochemical
- stated.conditions: concentration 3.0E−06 (unit not given)
readout.type: c-Kit AVG % Activity at Specific Concentration (%)

1) COCCOCCOCCOCCOCCNC(=O)c1c(C)[nH]c(/C=C2\C(=O)Nc3ccc(F)cc32)c1C ... 0
2) COCCOCCOCCOCCOCCOCCOCCOCCNC(=O)c1c(C)[nH]c(/C=C2\C(=O)Nc3ccc(F)cc32)c1C ... 1
3) COCCOCCOCCOCCOCCOCCOCCOCCOCCNC(=O)c1c(C)[nH]c(/C=C2\C(=O)Nc3ccc(F)cc32)c1C ... 2
4) COCCOCCOCCNC(=O)c1c(C)[nH]c(/C=C2\C(=O)Nc3ccc(F)cc32)c1C ... 1
5) COCCOCCOCCOCCOCCOCCNC(=O)c1c(C)[nH]c(/C=C2\C(=O)Nc3ccc(F)cc32)c1C ... 0

A. COCCOCCOCCOCCOCCOCCOCCNC(=O)c1c(C)[nH]c(/C=C2\C(=O)Nc3ccc(F)cc32)c1C
B. COCCOCCOCCOCCNC(=O)c1c(C)[nH]c(/C=C2\C(=O)Nc3ccc(F)cc32)c1C
**Q:** Exercise: compare A and B ; which one has the greater c-Kit AVG % Activity at Specific Concentration? Refer to your chosen item by its label in the answer.
**A:** A
(A: 1%, B: −1%)
